- tested-system: T1, c-erbB-2 ECD with a Ser-Gly-His6 C-terminal fusion (UniProt P04626 23-652)
- T1 construct: extracellular domain; Expressed from CHO cells, IMAC purified; coupled to a CM5 chip, coated on plates, or biotinylated with NHS-LC-biotin; also called c-erbB-2 extracellular domain; biotinylated c-erbB-2 ECD
- test-description: SPR BIAcore
recorded-metric: koff (s⁻¹)

C6.5Y99A (scFv, C6.5 VH CDR3 scan mutant; Kabat numbering) scFv: QVQLLQSGAELKKPGESLKISCKGSGYSFTSYWIAWVRQMPGKGLEYMGLIYPGDSDTKYSPSFQGQVTISVDKSVSTAYLQWSSLKPSDSAVYFCARHDVGACSSSNCAKWPEYFQHWGQGTLVTVSSGGGGSGGGGSGGGGSQSVLTQPPSVSAAPGQKVTISCSGSSSNIGNNYVSWYQQLPGTAPKLLIYGHTNRPAGVPDRFSGSKSGTSASLAISGFRSEDEADYYCAAWDDSLSGWVFGGGTKLTVLG : 0.053
C6.5H102A (scFv, C6.5 VH CDR3 scan mutant; Kabat numbering) scFv: QVQLLQSGAELKKPGESLKISCKGSGYSFTSYWIAWVRQMPGKGLEYMGLIYPGDSDTKYSPSFQGQVTISVDKSVSTAYLQWSSLKPSDSAVYFCARHDVGYCSSSNCAKWPEYFQAWGQGTLVTVSSGGGGSGGGGSGGGGSQSVLTQPPSVSAAPGQKVTISCSGSSSNIGNNYVSWYQQLPGTAPKLLIYGHTNRPAGVPDRFSGSKSGTSASLAISGFRSEDEADYYCAAWDDSLSGWVFGGGTKLTVLG : 0.011
